As shown below, each of these compounds has a reported IC50 value.
- tested target: UniProt:Q9Z0U4
- Sequence (Q9Z0U4 20-960): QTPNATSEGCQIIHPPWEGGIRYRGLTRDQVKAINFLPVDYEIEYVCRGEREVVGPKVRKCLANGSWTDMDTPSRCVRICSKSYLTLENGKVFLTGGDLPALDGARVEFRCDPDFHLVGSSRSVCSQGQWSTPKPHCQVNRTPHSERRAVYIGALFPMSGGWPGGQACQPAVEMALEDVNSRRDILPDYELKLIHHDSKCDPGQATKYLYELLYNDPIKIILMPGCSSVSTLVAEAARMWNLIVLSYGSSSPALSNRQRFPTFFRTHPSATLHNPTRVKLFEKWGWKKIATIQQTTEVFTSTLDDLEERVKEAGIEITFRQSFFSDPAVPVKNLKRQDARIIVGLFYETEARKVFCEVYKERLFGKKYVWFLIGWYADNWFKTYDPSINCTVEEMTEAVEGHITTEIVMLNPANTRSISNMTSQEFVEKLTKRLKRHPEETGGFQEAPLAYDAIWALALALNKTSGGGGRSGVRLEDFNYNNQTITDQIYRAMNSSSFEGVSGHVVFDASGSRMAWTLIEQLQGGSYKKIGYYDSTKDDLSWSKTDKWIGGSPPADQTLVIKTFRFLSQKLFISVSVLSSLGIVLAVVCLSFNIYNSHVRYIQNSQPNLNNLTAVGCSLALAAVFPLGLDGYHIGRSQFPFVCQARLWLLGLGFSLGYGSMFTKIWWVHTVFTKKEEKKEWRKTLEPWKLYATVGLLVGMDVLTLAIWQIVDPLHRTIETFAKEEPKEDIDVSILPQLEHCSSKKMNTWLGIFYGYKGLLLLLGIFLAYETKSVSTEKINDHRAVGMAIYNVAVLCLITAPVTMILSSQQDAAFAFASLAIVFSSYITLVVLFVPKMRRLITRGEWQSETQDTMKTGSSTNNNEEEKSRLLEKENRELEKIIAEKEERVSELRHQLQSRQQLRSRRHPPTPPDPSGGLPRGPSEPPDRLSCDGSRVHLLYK
- Sequence (O88871 41-940 partner): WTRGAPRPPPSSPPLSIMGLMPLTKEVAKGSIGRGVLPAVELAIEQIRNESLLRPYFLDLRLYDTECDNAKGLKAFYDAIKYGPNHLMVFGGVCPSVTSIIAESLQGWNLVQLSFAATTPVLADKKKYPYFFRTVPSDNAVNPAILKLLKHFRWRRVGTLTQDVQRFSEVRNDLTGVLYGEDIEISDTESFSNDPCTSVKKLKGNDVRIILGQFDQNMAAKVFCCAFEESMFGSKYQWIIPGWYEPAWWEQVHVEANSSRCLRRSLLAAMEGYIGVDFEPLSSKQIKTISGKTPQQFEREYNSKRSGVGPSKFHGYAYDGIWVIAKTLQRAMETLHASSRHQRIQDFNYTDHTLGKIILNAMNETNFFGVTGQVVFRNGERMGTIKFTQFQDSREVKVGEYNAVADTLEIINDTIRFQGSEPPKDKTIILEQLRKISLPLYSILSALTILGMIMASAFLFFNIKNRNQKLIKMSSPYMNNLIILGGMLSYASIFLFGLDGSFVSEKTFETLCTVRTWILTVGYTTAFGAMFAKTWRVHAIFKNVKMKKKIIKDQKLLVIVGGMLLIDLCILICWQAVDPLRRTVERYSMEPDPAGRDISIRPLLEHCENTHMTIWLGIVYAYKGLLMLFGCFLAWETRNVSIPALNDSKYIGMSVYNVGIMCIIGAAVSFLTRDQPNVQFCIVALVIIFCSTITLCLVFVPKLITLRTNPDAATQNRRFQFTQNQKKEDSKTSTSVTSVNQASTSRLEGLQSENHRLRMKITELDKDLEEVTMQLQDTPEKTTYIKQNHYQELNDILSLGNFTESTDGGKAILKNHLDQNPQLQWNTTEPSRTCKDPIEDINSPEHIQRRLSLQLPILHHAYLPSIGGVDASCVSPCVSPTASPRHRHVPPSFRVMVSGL
Counter-ions that a name gives are not always drawn.

Cl.N#Cc1ccc(F)c(-c2cc([C@H](CN)CC(=O)O)ccc2Cl)c1 [hydrochloride]    < 25 µM
Cl.NC[C@H](CC(=O)O)c1ccc(Cl)c(NCc2cnc[nH]2)c1 [Example 60, hydrochloride]    < 25 µM

Inquiry: Identify measured IC50 associated with Cl.N#Cc1ccc(Cl)c(-c2cc([C@H](CN)CC(=O)O)ccc2Cl)c1 [hydrochloride]
Reply text: < 25 µM

Inquiry: Identify measured IC50 associated with NC[C@H](CC(=O)O)c1ccc(Cl)c(-c2cc(C(=O)O)cs2)c1 [hydrochloride]
Reply text: < 25 µM

Inquiry: Identify measured IC50 associated with C[C@@H](Oc1cc([C@H](CN)CC(=O)O)ccc1Cl)c1ccncc1 [hydrochloride]
Reply text: < 25 µM

Inquiry: Identify measured IC50 associated with Cl.NC[C@H](CC(=O)O)c1ccc(Cl)c(OCc2ccncc2)c1 [Example 68, hydrochloride]
Reply text: < 25 µM

Inquiry: Identify measured IC50 associated with Cl.N#Cc1cccc(-c2cc([C@H](CN)CC(=O)O)ccc2Cl)c1 [Example 33, hydrochloride]
Reply text: < 25 µM

Inquiry: Identify measured IC50 associated with NCC(C[PH](=O)O)c1ccc(Cl)c(OCc2ccncc2)c1 (centres unmarked) [Example 82]
Reply text: < 25 µM

Source listed as patent US8344028B2.
